# TEST_TARGET: cathepsin B (Mus musculus, UniProt P10605)
# Sequence (P10605 80-333): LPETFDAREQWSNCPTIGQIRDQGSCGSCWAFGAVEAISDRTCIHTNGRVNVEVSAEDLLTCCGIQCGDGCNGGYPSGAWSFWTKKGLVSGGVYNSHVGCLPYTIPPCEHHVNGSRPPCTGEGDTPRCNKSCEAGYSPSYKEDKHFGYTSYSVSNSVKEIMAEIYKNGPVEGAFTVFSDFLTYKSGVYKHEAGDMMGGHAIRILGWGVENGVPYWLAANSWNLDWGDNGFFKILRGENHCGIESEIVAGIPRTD
READOUT_NAME: IC50 (µM)
One number for each entry, in µM.

Data request, read-out IC50, for Cc1cccc(C)c1C(=O)OCC(=O)[C@H](CCCCN)NC(=O)[C@H](CCCNC(=N)N)NC(=O)OCc1ccccc1 0.025
